// data source = patent US11597752B2

# SYSTEM_UNDER_TEST: HLA-A*02:01 (Homo sapiens, UniProt P04439, D140Y/D185E/D98H/E176V/E277Q/G131W/G231S/I119V/I121R/I166T/I218V/L300P/L318F/N151K/N90K/P208A/P217A/Q86G/Q94H/R138H/R169H/T345S)
# PROTOCOL_DESCRIPTION: MHC binding assay (UV-ligand exchange, beta2m ELISA, peptide exchange yield)
# COND: binding to HLA-A*02:01, β2m ELISA
MEASURED_PROPERTY: Peptide exchange (MHC class I binding score, peptide exchange yield)

69 (GMLNEAEGKAIKL; listed as Homo sapiens) [compound 69]	“++” (≥20% = ++)
66 (GLDDGPDFL; listed as Homo sapiens) [compound 66]	“++” (≥20% = ++)
183 (TLQEVVTGV; listed as Homo sapiens) [compound 183]	“+++” (≥50 = +++)
182 (SLNKWIFTV; listed as Homo sapiens) [compound 182]	“++++” (≥75% = ++++)

INPUT: I would be grateful if you could share the reported Peptide exchange (MHC class I binding score, peptide exchange yield) for 134 (GVAGGSILKGV; listed as Homo sapiens) [compound 134] .
OUTPUT: “++++” (≥75% = ++++)

INPUT: Param item = 190 (AMAEMVLQV; listed as Homo sapiens) [compound 190] ; retrieve measured Peptide exchange (MHC class I binding score, peptide exchange yield).
OUTPUT: “+++” (≥50 = +++)

INPUT: Give the measured Peptide exchange (MHC class I binding score, peptide exchange yield) of 104 (ILLTIKDDTIYL; listed as Homo sapiens) [compound 104] .
OUTPUT: “+++” (≥50 = +++)

INPUT: Would you kindly share the measured Peptide exchange (MHC class I binding score, peptide exchange yield) for 2 (ALLPRYFFL; listed as Homo sapiens) [compound 2] ?
OUTPUT: “++” (≥20% = ++)

INPUT: Requested field: Peptide exchange (MHC class I binding score, peptide exchange yield). Item: 19 (RLYTKLLNEA; listed as Homo sapiens) [compound 19]
OUTPUT: “+++” (≥50 = +++)

INPUT: Bench note: what Peptide exchange (MHC class I binding score, peptide exchange yield) did 189 (AISEVIGKITA; listed as Homo sapiens) [compound 189] show?
OUTPUT: “+++” (≥50 = +++)

* * *

# SYSTEM_UNDER_TEST: HLA-A*02:01 (Homo sapiens, UniProt P04439, D140Y/D185E/D98H/E176V/E277Q/G131W/G231S/I119V/I121R/I166T/I218V/L300P/L318F/N151K/N90K/P208A/P217A/Q86G/Q94H/R138H/R169H/T345S)
# PROTOCOL_DESCRIPTION: MHC binding assay (UV-ligand exchange, beta2m ELISA, peptide exchange yield)
# COND: binding to HLA-A*02:01, β2m ELISA
MEASURED_PROPERTY: Peptide exchange (MHC class I binding score, peptide exchange yield)

Consider the reported Peptide exchange (MHC class I binding score, peptide exchange yield) for these substances:
27 (LLADEDSSYL; listed as Homo sapiens) [compound 27]	“++” (≥20% = ++)
47 (KLYERCEVV; listed as Homo sapiens) [compound 47]	“++” (≥20% = ++)
46 (GLDDRYSLV; listed as Homo sapiens) [compound 46]	“+++” (≥50 = +++)
171 (RLQETEGMVAV; listed as Homo sapiens) [compound 171]	“++” (≥20% = ++)

INPUT: I am curious: what Peptide exchange (MHC class I binding score, peptide exchange yield) value has been reported for 99 (KLLEVDLDTV; listed as Homo sapiens) [compound 99] ?
OUTPUT: “+++” (≥50 = +++)

* * *

# SYSTEM_UNDER_TEST: HLA-A*02:01 (Homo sapiens, UniProt P04439, D140Y/D185E/D98H/E176V/E277Q/G131W/G231S/I119V/I121R/I166T/I218V/L300P/L318F/N151K/N90K/P208A/P217A/Q86G/Q94H/R138H/R169H/T345S)
# PROTOCOL_DESCRIPTION: MHC binding assay (UV-ligand exchange, beta2m ELISA, peptide exchange yield)
# COND: binding to HLA-A*02:01, β2m ELISA
MEASURED_PROPERTY: Peptide exchange (MHC class I binding score, peptide exchange yield)

185 (VLYTGVVRV; listed as Homo sapiens) [compound 185]	“+++” (≥50 = +++)
72 (YLLDYPNNLL; listed as Homo sapiens) [compound 72]	“+++” (≥50 = +++)
3 (RLIPDTLYSV; listed as Homo sapiens) [compound 3]	“++++” (≥75% = ++++)
80 (QVDEVVDIMRV; listed as Homo sapiens) [compound 80]	“++” (≥20% = ++)

INPUT: Value lookup for Peptide exchange (MHC class I binding score, peptide exchange yield); key = 95 (AILDAHIEV; listed as Homo sapiens) [compound 95]
OUTPUT: “++++” (≥75% = ++++)

INPUT: For the substance 41 (ILDDSFKLL; listed as Homo sapiens) [compound 41] , what Peptide exchange (MHC class I binding score, peptide exchange yield) is on record?
OUTPUT: “++” (≥20% = ++)

* * *

# SYSTEM_UNDER_TEST: HLA-A*02:01 (Homo sapiens, UniProt P04439, D140Y/D185E/D98H/E176V/E277Q/G131W/G231S/I119V/I121R/I166T/I218V/L300P/L318F/N151K/N90K/P208A/P217A/Q86G/Q94H/R138H/R169H/T345S)
# PROTOCOL_DESCRIPTION: MHC binding assay (UV-ligand exchange, beta2m ELISA, peptide exchange yield)
# COND: binding to HLA-A*02:01, β2m ELISA
MEASURED_PROPERTY: Peptide exchange (MHC class I binding score, peptide exchange yield)

Solved entries (count: 6):
14 (FLDKPEDVLL; listed as Homo sapiens) [compound 14]	“++” (≥20% = ++)
34 (ILLEKSVSV; listed as Homo sapiens) [compound 34]	“+++” (≥50 = +++)
101 (GLSEGHTFQV; listed as Homo sapiens) [compound 101]	“+++” (≥50 = +++)
116 (LVYQFVHPI; listed as Homo sapiens) [compound 116]	“++” (≥20% = ++)
166 (GLLEARGILGL; listed as Homo sapiens) [compound 166]	“+++” (≥50 = +++)
137 (QLTEIKPLL; listed as Homo sapiens) [compound 137]	“+++” (≥50 = +++)

INPUT: // returns reported Peptide exchange (MHC class I binding score, peptide exchange yield) for input 40 (ALSNVIHKV; listed as Homo sapiens) [compound 40]
OUTPUT: “++” (≥20% = ++)

INPUT: Looking for the measured Peptide exchange (MHC class I binding score, peptide exchange yield) of 119 (ILYQTVTGL; listed as Homo sapiens) [compound 119] , can you help?
OUTPUT: “++” (≥20% = ++)

INPUT: Given the substance 155 (RLLGEEVVRV; listed as Homo sapiens) [compound 155] , what is its reported Peptide exchange (MHC class I binding score, peptide exchange yield)?
OUTPUT: “+++” (≥50 = +++)

INPUT: Reported Peptide exchange (MHC class I binding score, peptide exchange yield), substance 12 (ALVQGILERV; listed as Homo sapiens) [compound 12] : ____
OUTPUT: “+++” (≥50 = +++)

INPUT: What measured Peptide exchange (MHC class I binding score, peptide exchange yield) goes with 6 (FLAELPGSLSL; listed as Homo sapiens) [compound 6] ?
OUTPUT: “+++” (≥50 = +++)

INPUT: Need Peptide exchange (MHC class I binding score, peptide exchange yield) of 131 (KLLDVVHPA; listed as Homo sapiens) [compound 131] , thanks.
OUTPUT: “++” (≥20% = ++)

INPUT: So what does the record say about Peptide exchange (MHC class I binding score, peptide exchange yield) for 86 (KVFPGKISV; listed as Homo sapiens) [compound 86] ?
OUTPUT: “++” (≥20% = ++)

INPUT: What value of Peptide exchange (MHC class I binding score, peptide exchange yield) has been recorded for this entry: 75 (EMIENIQSV; listed as Homo sapiens) [compound 75]
OUTPUT: “++” (≥20% = ++)

INPUT: Name the recorded Peptide exchange (MHC class I binding score, peptide exchange yield) for 113 (ILYDLQQNL; listed as Homo sapiens) [compound 113] .
OUTPUT: “++” (≥20% = ++)

INPUT: // Peptide exchange (MHC class I binding score, peptide exchange yield) lookup, key: 50 (TLMAEMHVV; listed as Homo sapiens) [compound 50]
OUTPUT: “+++” (≥50 = +++)

* * *

# SYSTEM_UNDER_TEST: HLA-A*02:01 (Homo sapiens, UniProt P04439, D140Y/D185E/D98H/E176V/E277Q/G131W/G231S/I119V/I121R/I166T/I218V/L300P/L318F/N151K/N90K/P208A/P217A/Q86G/Q94H/R138H/R169H/T345S)
# PROTOCOL_DESCRIPTION: MHC binding assay (UV-ligand exchange, beta2m ELISA, peptide exchange yield)
# COND: binding to HLA-A*02:01, β2m ELISA
MEASURED_PROPERTY: Peptide exchange (MHC class I binding score, peptide exchange yield)

154 (KLPSETIFVGC; listed as Homo sapiens) [compound 154]	“+++” (≥50 = +++)
168 (GLIRFPLMTI; listed as Homo sapiens) [compound 168]	“+++” (≥50 = +++)
4 (RLAELTVDEFL; listed as Homo sapiens) [compound 4]	“+++” (≥50 = +++)
67 (SLNDLEKDVMLL; listed as Homo sapiens) [compound 67]	“+++” (≥50 = +++)
71 (RLWTEIPTAI; listed as Homo sapiens) [compound 71]	“+++” (≥50 = +++)
59 (LLTDNVVKL; listed as Homo sapiens) [compound 59]	“+++” (≥50 = +++)
146 (ALSDETWGL; listed as Homo sapiens) [compound 146]	“++” (≥20% = ++)
33 (ALWEKNTHL; listed as Homo sapiens) [compound 33]	“+++” (≥50 = +++)

INPUT: Dear colleague, I am looking for the recorded Peptide exchange (MHC class I binding score, peptide exchange yield) of the following substance: 188 (FLVDGPRVQL; listed as Homo sapiens) [compound 188]
OUTPUT: “+++” (≥50 = +++)

INPUT: Sample 147 (TLTELRAFL; listed as Homo sapiens) [compound 147] — what was its Peptide exchange (MHC class I binding score, peptide exchange yield)?
OUTPUT: “++++” (≥75% = ++++)

INPUT: What measured Peptide exchange (MHC class I binding score, peptide exchange yield) goes with 164 (KMLDEILLQL; listed as Homo sapiens) [compound 164] ?
OUTPUT: “++++” (≥75% = ++++)

INPUT: # Peptide exchange (MHC class I binding score, peptide exchange yield) lookup, item 18 (FLSSLKGGLL; listed as Homo sapiens) [compound 18]
OUTPUT: “+++” (≥50 = +++)

INPUT: Find the recorded Peptide exchange (MHC class I binding score, peptide exchange yield) belonging to 184 (SLLDENNVSSYL; listed as Homo sapiens) [compound 184] and report it.
OUTPUT: “+++” (≥50 = +++)

INPUT: What measured Peptide exchange (MHC class I binding score, peptide exchange yield) goes with 82 (QLYEEPDTKL; listed as Homo sapiens) [compound 82] ?
OUTPUT: “++” (≥20% = ++)

INPUT: Which Peptide exchange (MHC class I binding score, peptide exchange yield) reading was recorded for the substance 159 (VLVDDDGIKVV; listed as Homo sapiens) [compound 159] ?
OUTPUT: “++” (≥20% = ++)

INPUT: What value of measured Peptide exchange (MHC class I binding score, peptide exchange yield) is listed for 73 (YLFDIAVSM; listed as Homo sapiens) [compound 73] ?
OUTPUT: “+++” (≥50 = +++)

INPUT: Looking for the measured Peptide exchange (MHC class I binding score, peptide exchange yield) of 100 (SLDDFLATA; listed as Homo sapiens) [compound 100] , can you help?
OUTPUT: “+++” (≥50 = +++)

INPUT: What value of measured Peptide exchange (MHC class I binding score, peptide exchange yield) is listed for 74 (YLMGFLHAV; listed as Homo sapiens) [compound 74] ?
OUTPUT: “+++” (≥50 = +++)
